Known EC50 of a selection of compounds
tested on: T-24; assay: Antiproliferative activity against human T24 cells after 96 hrs by crystal violet assay; format: functional; details: T-24, 96 h, read-out: ED50 (the source's name)
Answer format: numeric, µM implied, no suffix.

Look over these answered cases.
[
  {
    "compound": "CC(=O)Oc1ccc(O[C@@H]2OC[C@@H](OC(C)=O)[C@H](OC(C)=O)[C@H]2OC(C)=O)c2ccccc12",
    "assayed target": "T-24",
    "endpoint value": 130
  },
  {
    "compound": "CC(=O)Oc1cccc2ccc(O[C@@H]3OC[C@@H](OC(C)=O)[C@H](OC(C)=O)[C@H]3OC(C)=O)cc12",
    "assayed target": "T-24",
    "endpoint value": 75
  },
  {
    "compound": "CC(=O)O[C@@H]1[C@@H](OC(C)=O)[C@H](Oc2ccc3cc(O[C@@H]4OC[C@@H](OC(C)=O)[C@H](OC(C)=O)[C@H]4OC(C)=O)ccc3c2)OC[C@H]1OC(C)=O",
    "assayed target": "T-24",
    "endpoint value": 320
  }
]

I would be grateful if you could share the reported EC50 for CC(=O)Oc1cc(O[C@@H]2OC[C@@H](OC(C)=O)[C@H](OC(C)=O)[C@H]2OC(C)=O)cc2ccccc12 .
65

I would be grateful if you could share the reported EC50 for CC(=O)O[C@@H]1[C@@H](OC(C)=O)[C@H](Oc2cc(O[C@@H]3OC[C@@H](OC(C)=O)[C@H](OC(C)=O)[C@H]3OC(C)=O)c3ccccc3c2)OC[C@H]1OC(C)=O .
40

I would be grateful if you could share the reported EC50 for CC(=O)Oc1cccc2cc(O[C@@H]3OC[C@@H](OC(C)=O)[C@H](OC(C)=O)[C@H]3OC(C)=O)ccc12 .
65

I would be grateful if you could share the reported EC50 for CC(=O)Oc1ccc2c(O[C@@H]3OC[C@@H](OC(C)=O)[C@H](OC(C)=O)[C@H]3OC(C)=O)cccc2c1 .
110

I would be grateful if you could share the reported EC50 for CC(=O)O[C@@H]1[C@@H](OC(C)=O)[C@H](Oc2ccc3c(O[C@@H]4OC[C@@H](OC(C)=O)[C@H](OC(C)=O)[C@H]4OC(C)=O)cccc3c2)OC[C@H]1OC(C)=O .
100
